molecular target: MT2 receptor (Homo sapiens, UniProt P49286); test: FLIPR Ca2+ mobilization assay, MT2; type: cell-based; design: expressed in transfected cells; host or cells: COS-7 (monkey kidney fibroblast); conditions: Table 1; MT2; relative to 2-IMT response
Sequence (P49286 whole entry): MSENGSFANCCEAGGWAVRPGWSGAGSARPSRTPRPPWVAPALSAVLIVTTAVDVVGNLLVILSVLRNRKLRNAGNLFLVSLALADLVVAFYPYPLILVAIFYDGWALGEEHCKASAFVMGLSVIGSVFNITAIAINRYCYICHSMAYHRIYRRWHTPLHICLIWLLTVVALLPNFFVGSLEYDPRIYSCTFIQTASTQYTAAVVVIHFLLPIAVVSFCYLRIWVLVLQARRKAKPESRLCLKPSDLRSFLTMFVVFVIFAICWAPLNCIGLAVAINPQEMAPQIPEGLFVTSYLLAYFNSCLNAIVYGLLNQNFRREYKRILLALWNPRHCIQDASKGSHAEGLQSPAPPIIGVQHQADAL
attribute.measured: % Response of 2-IMT (%)

| chemical.structure | target.desc | quantitative.readout |
| --- | --- | --- |
| Cn1ccc2cc(OC(=O)c3ccccc3)c(OC(=O)c3ccccc3)cc2c1=O | MT2 receptor (Homo sapiens, UniProt P49286) | 61.0 |
| COc1ccc(O)c2c(=O)n(C)ccc12 | MT2 receptor (Homo sapiens, UniProt P49286) | 39.4 |
| COc1cc(COc2c(OC)ccc3c(=O)n(C)ccc23)cc(OC)c1 | MT2 receptor (Homo sapiens, UniProt P49286) | 64.8 |
| COc1cccc(COc2cc3ccn(C)c(=O)c3cc2OC)c1 | MT2 receptor (Homo sapiens, UniProt P49286) | 94.9 |
| COc1cc2ccn(C)c(=O)c2cc1OCc1ccc(C(C)(C)C)cc1 | MT2 receptor (Homo sapiens, UniProt P49286) | 88.6 |

----------
molecular target: MT1 receptor (Homo sapiens, UniProt P48039); assay: FLIPR Ca2+ mobilization assay, MT1; format: cell-based; design: expressed in transfected cells; host or cells: COS-7 (monkey kidney fibroblast); conditions: running text b158; read-out: EC50 MT1
Sequence (P48039 whole entry): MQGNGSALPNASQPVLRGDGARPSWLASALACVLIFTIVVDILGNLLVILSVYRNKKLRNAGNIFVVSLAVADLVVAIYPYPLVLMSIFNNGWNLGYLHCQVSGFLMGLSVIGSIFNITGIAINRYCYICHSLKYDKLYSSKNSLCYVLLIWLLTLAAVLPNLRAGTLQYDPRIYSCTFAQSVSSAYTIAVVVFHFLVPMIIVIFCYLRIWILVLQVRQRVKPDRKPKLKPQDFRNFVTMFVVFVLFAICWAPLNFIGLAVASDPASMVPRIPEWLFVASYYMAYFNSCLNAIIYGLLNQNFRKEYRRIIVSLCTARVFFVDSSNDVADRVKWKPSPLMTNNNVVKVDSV

| chemical.structure | EC50, nM |
| --- | --- |
| COc1ccc2c(=O)n(C)ccc2c1OCc1ccccc1 | 5.81 |

----------
molecular target: MT2 receptor (Homo sapiens); experiment: FLIPR Ca2+ mobilization assay, MT2; assay type: cell-based; design: expressed in transfected cells; host or cells: COS-7 (monkey kidney fibroblast); settings: FLIPR results, MT1 versus MT2
attribute.measured: agonist character / receptor subtype selectivity in words

| chemical.structure | result |
| --- | --- |
| COc1ccc2c(=O)n(C)ccc2c1OCc1ccc(C)cc1 | activated MT2 only |
| COc1ccc2c(=O)n(C)ccc2c1OCc1ccc(Br)cc1 | activated MT2 only |
| COc1ccc2c(=O)n(C)ccc2c1OCCCc1ccccc1 | activated MT2 only |

----------
molecular target: MT1 receptor (Homo sapiens); test: CRE-Luc (luciferase reporter gene) assay, MT1; assay type: cell-based; parameters: expressed in transfected cells; details: HEK 293-pCREluc cells with MT1; inhibition of forskolin response
attribute.measured: CRE-Luc Assay MT1 % Inh ± SEM of 1 μM Fsk (%)

| compound | target.desc | value.units | quantitative.readout |
| --- | --- | --- | --- |
| COc1cccc(COc2cc3ccn(C)c(=O)c3cc2OC)c1 | MT1 receptor (Homo sapiens) | % | 82.3 |
| COc1ccc2c(=O)n(C)ccc2c1OCc1ccc(C)cc1 | MT1 receptor (Homo sapiens) | % | 67.7 |
| COc1cc2ccn(C)c(=O)c2cc1OCc1ccc(C(C)(C)C)cc1 | MT1 receptor (Homo sapiens) | % | 36.2 |
| COc1ccc2[nH]c(I)c(CCNC(C)=O)c2c1 [Compound 2-IMT, 2-iodomelatonin, reference compound] | MT1 receptor (Homo sapiens) | % | 73.0 |
| COc1cc(COc2cc3c(=O)n(C)ccc3cc2OC)cc(OC)c1 | MT1 receptor (Homo sapiens) | % | 70.4 |
| COc1cc(COc2cc3ccn(C)c(=O)c3cc2OC)cc(OC)c1 | MT1 receptor (Homo sapiens) | % | 73.9 |
| COc1cccc(COc2c(OC)ccc3c(=O)n(C)ccc23)c1 | MT1 receptor (Homo sapiens) | % | 82.4 |
| COc1cccc(COc2cc3c(=O)n(C)ccc3cc2OC)c1 | MT1 receptor (Homo sapiens) | % | 84.2 |
| COc1cc(COc2c(OC)ccc3c(=O)n(C)ccc23)cc(OC)c1 | MT1 receptor (Homo sapiens) | % | 69.7 |
| Cn1ccc2cc(OC(=O)c3ccccc3)c(OC(=O)c3ccccc3)cc2c1=O | MT1 receptor (Homo sapiens) | % | 73.0 |
